Each recorded value in this set is attributed to PubChem BioAssay (EPA / NIEHS).

- Read-out: Phosphatase and tensin (PTEN), PTEN (gene 5728)
- experimentNotes: LTEA_HepaRG_PTEN: Life Technologies and Expression Analysis (LTEA) Assay for Phosphatase and tensin (PTEN) using HepaRG (AID 2283523)
- recordedConditions: mRNA level, 48 h; actives raise or lower the signal
Calls of active or inactive are those of the source. Rule for the calls: active = hit-call score of the fitted dose curve at least 0.9, where 1 is the maximum; inactive = score below 0.9.
Your answer must be one of the following: active, inactive

CC[C@H](C)[C@H]1O[C@]2(C=C[C@@H]1C)C[C@@H]1C[C@@H](C/C=C(\C)[C@@H](O[C@H]3C[C@H](OC)[C@@H](O[C@H]4C[C@H](OC)[C@@H](NC)[C@H](C)O4)[C@H](C)O3)[C@@H](C)/C=C/C=C3\CO[C@@H]4[C@H](O)C(C)=C[C@@H](C(=O)O1)[C@]34O)O2 ... active
S=C1NCCN1 ... inactive
CON=C(C(=O)OC)c1ccccc1CON=C(C)c1cccc(C(F)(F)F)c1 ... inactive
CNC(=O)ON=C(SC)C(=O)N(C)C ... inactive
COP(=O)(OC)SCn1c(=O)oc2cc(Cl)cnc21 ... inactive
CCCCSP(=O)(SCCCC)SCCCC ... inactive

Asked: Name the outcome recorded for CC(C)N(C(=O)SCC(Cl)=C(Cl)Cl)C(C)C in the assay.
Given back: inactive

Asked: Name the outcome recorded for CCc1cccc(C)c1N(C(=O)CCl)C(C)COC (stereo not given) in the assay.
Given back: inactive

Asked: Name the outcome recorded for CCC(CC)Nc1c([N+](=O)[O-])cc(C)c(C)c1[N+](=O)[O-] in the assay.
Given back: inactive

Asked: Name the outcome recorded for CCCSP(=O)(OCC)SCCC in the assay.
Given back: inactive

Asked: Name the outcome recorded for CCOP(=S)(OCC)OC(Cl)C(Cl)(Cl)Cl (stereo not given) in the assay.
Given back: inactive

Asked: Name the outcome recorded for CCOP(=S)(OCC)Oc1ccc2c(C)c(Cl)c(=O)oc2c1 in the assay.
Given back: inactive

* * *

- experimentNotes: APR_HepG2_P-H2AX_72hr: Apredica 72-hour HepG2 Assay for H2AX Phosphorylation (AID 2282916);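 note: phospho-histone H2A.x immunostain intensity per cell marking DNA damage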
- recordedConditions: imaging, actives raise or lower the signal
The source made the active and inactive calls. Rule for the calls: active = hit-call score of the fitted dose curve at least 0.9, where 1 is the maximum; inactive = score below 0.9.
Your answer must be one of the following: 1 = active, -1 = inactive

Some solved cases for reference:
C=C(C)[C@H]1Cc2c(ccc3c2O[C@@H]2COc4cc(OC)c(OC)cc4[C@@H]2C3=O)O1 ... 1
CC(Oc1cccc(Cl)c1)C(=O)O (stereo not given) ... -1
CCOC(=O)CC(SP(=O)(OC)OC)C(=O)OCC (stereo not given) ... -1
CC(C)N(C(=O)SCC(Cl)=C(Cl)Cl)C(C)C ... -1
COc1cccc(C(=O)NN(C(=O)c2cc(C)cc(C)c2)C(C)(C)C)c1C ... -1

Asked: Name the outcome recorded for CC1=NNC(=O)N(/N=C/c2cccnc2)C1 in the assay.
Given back: -1

Asked: Name the outcome recorded for CNC(=O)ON=C(SC)C(=O)N(C)C in the assay.
Given back: -1

Asked: Name the outcome recorded for COP(=O)(NC(C)=O)SC (stereo not given) in the assay.
Given back: -1

Asked: Name the outcome recorded for CNC(=O)ON=C(C)SC in the assay.
Given back: -1

Asked: Name the outcome recorded for COP(=O)(OC)C(O)C(Cl)(Cl)Cl (stereo not given) in the assay.
Given back: -1

Asked: Name the outcome recorded for CC(C)=CC1C(C(=O)OCN2C(=O)C3=C(CCCC3)C2=O)C1(C)C (stereo not given) in the assay.
Given back: -1

Asked: Name the outcome recorded for O=C(O)c1cc(Oc2ccc(C(F)(F)F)cc2Cl)ccc1[N+](=O)[O-] in the assay.
Given back: -1

Asked: Name the outcome recorded for CCCOCC(=Nc1ccc(Cl)cc1C(F)(F)F)n1ccnc1 in the assay.
Given back: -1

Asked: Name the outcome recorded for CCOP(=S)(OCC)SCCSCC in the assay.
Given back: -1

Asked: Name the outcome recorded for CCCCOC(=O)[C@@H](C)Oc1ccc(Oc2ccc(C#N)cc2F)cc1 in the assay.
Given back: -1
